B1: PRPH (parent)
chain: DEIEFLKKLHEEELRDLQVSVESQ

- Variants of: B1
- experiment-notes: protein stability index of a GFP-peptide fusion (GPS, HEK-293T) (PSI 1-6); higher = more stable;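 also: lentivirally expressed fusions sorted by FACS into six bins by GFP to DsRed ratio, PSI derived from sequencing read proportions per bin multiplied by bin number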
- condition-context: c terminus: a fixed tail appended
Classification field: met = protein stability index at or over 5; not met = protein stability index under 5.

Could you verify whether the entry "E4G" shows protein stability index of no less than 5?
not met

Could you verify whether the entry "L17K" shows protein stability index of no less than 5?
not met

Could you verify whether the entry "E12Y" shows protein stability index of no less than 5?
not met

Could you verify whether the entry "E4L" shows protein stability index of no less than 5?
not met

Could you verify whether the entry "Q18P" shows protein stability index of no less than 5?
met

Could you verify whether the entry "S23K" shows protein stability index of no less than 5?
not met

Could you verify whether the entry "K7M" shows protein stability index of no less than 5?
not met

Could you verify whether the entry "D16T" shows protein stability index of no less than 5?
not met

Could you verify whether the entry "D16A" shows protein stability index of no less than 5?
not met

Could you verify whether the entry "K7A" shows protein stability index of no less than 5?
not met

Could you verify whether the entry "R15E" shows protein stability index of no less than 5?
not met

Could you verify whether the entry "E13V" shows protein stability index of no less than 5?
not met

Could you verify whether the entry "L17A" shows protein stability index of no less than 5?
met

Could you verify whether the entry "Q24L" shows protein stability index of no less than 5?
not met

Could you verify whether the entry "H10L" shows protein stability index of no less than 5?
not met

Could you verify whether the entry "S23L" shows protein stability index of no less than 5?
not met

Could you verify whether the entry "I3E" shows protein stability index of no less than 5?
met

Could you verify whether the entry "L9R" shows protein stability index of no less than 5?
met

Could you verify whether the entry "L9T" shows protein stability index of no less than 5?
met

Could you verify whether the entry "L14F" shows protein stability index of no less than 5?
not met

Could you verify whether the entry "L17W" shows protein stability index of no less than 5?
not met

Could you verify whether the entry "E11A" shows protein stability index of no less than 5?
not met

Could you verify whether the entry "D16Q" shows protein stability index of no less than 5?
not met

Could you verify whether the entry "D16C" shows protein stability index of no less than 5?
not met

Could you verify whether the entry "L9P" shows protein stability index of no less than 5?
met

Could you verify whether the entry "D1G" shows protein stability index of no less than 5?
not met

Could you verify whether the entry "E4K" shows protein stability index of no less than 5?
not met

Could you verify whether the entry "F5E" shows protein stability index of no less than 5?
met

Could you verify whether the entry "E13L" shows protein stability index of no less than 5?
not met

Could you verify whether the entry "K7H" shows protein stability index of no less than 5?
not met

Could you verify whether the entry "E12G" shows protein stability index of no less than 5?
not met

Could you verify whether the entry "E2M" shows protein stability index of no less than 5?
not met

Could you verify whether the entry "V19G" shows protein stability index of no less than 5?
met

Could you verify whether the entry "S20Y" shows protein stability index of no less than 5?
not met

Could you verify whether the entry "L9W" shows protein stability index of no less than 5?
not met

Could you verify whether the entry "E12V" shows protein stability index of no less than 5?
not met

Could you verify whether the entry "Q24I" shows protein stability index of no less than 5?
not met

Could you verify whether the entry "K8N" shows protein stability index of no less than 5?
not met

Could you verify whether the entry "E4Q" shows protein stability index of no less than 5?
not met

Could you verify whether the entry "Q24W" shows protein stability index of no less than 5?
not met

Could you verify whether the entry "L6E" shows protein stability index of no less than 5?
met

Could you verify whether the entry "Q18Y" shows protein stability index of no less than 5?
not met

Could you verify whether the entry "V21Y" shows protein stability index of no less than 5?
not met

Could you verify whether the entry "S20A" shows protein stability index of no less than 5?
not met

Could you verify whether the entry "K8R" shows protein stability index of no less than 5?
not met

Could you verify whether the entry "D1F" shows protein stability index of no less than 5?
not met

Could you verify whether the entry "L6W" shows protein stability index of no less than 5?
not met

Could you verify whether the entry "L14W" shows protein stability index of no less than 5?
not met

Could you verify whether the entry "E22T" shows protein stability index of no less than 5?
not met

Could you verify whether the entry "R15M" shows protein stability index of no less than 5?
not met

Could you verify whether the entry "E22I" shows protein stability index of no less than 5?
not met

Could you verify whether the entry "Q24R" shows protein stability index of no less than 5?
not met

Could you verify whether the entry "I3W" shows protein stability index of no less than 5?
not met

Could you verify whether the entry "E13G" shows protein stability index of no less than 5?
not met

Could you verify whether the entry "D16W" shows protein stability index of no less than 5?
not met

Could you verify whether the entry "H10W" shows protein stability index of no less than 5?
not met

Could you verify whether the entry "E4T" shows protein stability index of no less than 5?
not met

Could you verify whether the entry "L17N" shows protein stability index of no less than 5?
not met

Could you verify whether the entry "S20L" shows protein stability index of no less than 5?
not met

Could you verify whether the entry "Q18D" shows protein stability index of no less than 5?
met

Could you verify whether the entry "L14E" shows protein stability index of no less than 5?
not met

Could you verify whether the entry "E12H" shows protein stability index of no less than 5?
not met

Could you verify whether the entry "L6Q" shows protein stability index of no less than 5?
met

Could you verify whether the entry "E22N" shows protein stability index of no less than 5?
not met

Could you verify whether the entry "H10Y" shows protein stability index of no less than 5?
not met

Could you verify whether the entry "D16F" shows protein stability index of no less than 5?
not met

Could you verify whether the entry "L6P" shows protein stability index of no less than 5?
met

Could you verify whether the entry "L17H" shows protein stability index of no less than 5?
not met

Could you verify whether the entry "E13K" shows protein stability index of no less than 5?
met

Could you verify whether the entry "D1A" shows protein stability index of no less than 5?
not met

Could you verify whether the entry "E22K" shows protein stability index of no less than 5?
not met

Could you verify whether the entry "K8S" shows protein stability index of no less than 5?
not met
